pIC50: −log10 of the molar value.
Observed pIC50 for Protein deacetylase HDAC6 (Homo sapiens, UniProt Q9UBN7), reported per entry below.

molecule: N[C@H](Cc1cccc(Cl)c1)C(=O)N1CCN(C(=O)c2cc(F)ccc2F)CC1
studyTarget: Protein deacetylase HDAC6 (Homo sapiens, UniProt Q9UBN7)
Sequence (Q9UBN7 whole entry): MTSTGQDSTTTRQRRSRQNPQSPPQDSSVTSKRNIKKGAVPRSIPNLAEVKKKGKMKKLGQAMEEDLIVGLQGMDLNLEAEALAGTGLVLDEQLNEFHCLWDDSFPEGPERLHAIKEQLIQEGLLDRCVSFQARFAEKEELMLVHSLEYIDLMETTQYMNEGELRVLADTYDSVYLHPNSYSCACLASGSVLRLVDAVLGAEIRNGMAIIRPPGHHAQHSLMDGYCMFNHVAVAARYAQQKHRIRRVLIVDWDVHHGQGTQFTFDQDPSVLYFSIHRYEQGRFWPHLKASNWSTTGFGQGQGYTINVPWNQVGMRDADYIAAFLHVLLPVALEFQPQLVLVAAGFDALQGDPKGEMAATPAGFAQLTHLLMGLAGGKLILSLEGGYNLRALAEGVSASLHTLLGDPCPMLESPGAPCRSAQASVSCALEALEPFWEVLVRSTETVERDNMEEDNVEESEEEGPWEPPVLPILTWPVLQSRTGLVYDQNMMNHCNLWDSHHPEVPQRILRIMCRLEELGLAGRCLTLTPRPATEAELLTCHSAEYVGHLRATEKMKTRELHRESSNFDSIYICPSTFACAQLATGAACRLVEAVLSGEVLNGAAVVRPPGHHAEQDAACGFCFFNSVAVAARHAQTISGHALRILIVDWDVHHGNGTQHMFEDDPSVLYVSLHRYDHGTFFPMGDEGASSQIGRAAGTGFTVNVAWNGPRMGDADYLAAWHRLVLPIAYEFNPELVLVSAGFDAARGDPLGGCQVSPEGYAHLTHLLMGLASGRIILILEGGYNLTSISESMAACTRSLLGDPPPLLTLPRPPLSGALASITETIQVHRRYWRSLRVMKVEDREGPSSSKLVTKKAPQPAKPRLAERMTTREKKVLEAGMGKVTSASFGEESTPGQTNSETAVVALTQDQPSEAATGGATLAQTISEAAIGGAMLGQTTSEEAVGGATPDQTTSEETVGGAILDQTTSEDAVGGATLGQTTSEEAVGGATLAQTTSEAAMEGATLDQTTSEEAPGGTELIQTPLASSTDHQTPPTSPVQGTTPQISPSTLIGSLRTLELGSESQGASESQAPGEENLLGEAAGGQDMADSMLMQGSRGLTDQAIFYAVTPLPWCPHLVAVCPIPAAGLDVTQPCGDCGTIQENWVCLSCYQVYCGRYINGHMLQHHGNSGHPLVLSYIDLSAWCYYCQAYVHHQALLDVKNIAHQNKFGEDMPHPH
pIC50: < 4.52

Turning now to a further compound:
Request: Give its pIC50 value. Item: N[C@H](Cc1ccc(Cl)cc1Cl)C(=O)N1Cc2ccccc2C1
Response: < 4.52
